B1: HDV Ribozyme (parent)
chain: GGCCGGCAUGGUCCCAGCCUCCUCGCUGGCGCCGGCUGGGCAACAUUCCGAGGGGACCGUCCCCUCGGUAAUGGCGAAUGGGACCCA

Variants of: B1
Test: self-cleavage, relative activity (ratio to wild type); higher = more cleavage; co-transcriptional
Metric: self-cleavage

// G28A C57G : self-cleavage value = 0

// C7A C36U : self-cleavage value = 0.203

// C30A G73C : self-cleavage value = 0.119

// U9G G55U : self-cleavage value = 1.05

// U46G A83C : self-cleavage value = 0.293

// G25C C86U : self-cleavage value = 0.104

// U12G C62A : self-cleavage value = 1.06

// C22A C49G : self-cleavage value = 0.143

// U37G G67C : self-cleavage value = 0.229

// G35U A43G : self-cleavage value = 0.185

// C4U A71C : self-cleavage value = 0.499

// A8C C63U : self-cleavage value = 0.633

// C22G : self-cleavage value = 0.0832

// G54U G68U : self-cleavage value = 0.842

// G39A C41G : self-cleavage value = 0.228

// A8G G73A : self-cleavage value = 0.369

// G73C C84U : self-cleavage value = 0.321

// C24A G67A : self-cleavage value = 0.802

// C26A A70U : self-cleavage value = 1.23

// C49U G52A : self-cleavage value = 0.96

// G55C C66A : self-cleavage value = 0.87

// C64A G67C : self-cleavage value = 0.277

// G73A G82A : self-cleavage value = 0.18

// G1U C32A : self-cleavage value = 0.289

// A45C G68A : self-cleavage value = 0.686

// C19A G80A : self-cleavage value = 0.0329

// A8U C24A : self-cleavage value = 0.208

// C33G C36G : self-cleavage value = 0.128

// C44A G54U : self-cleavage value = 0.794

// G1U A16G : self-cleavage value = 0.256

// C3U C62A : self-cleavage value = 0.973

// C48A U72A : self-cleavage value = 0.456

// U9G U79C : self-cleavage value = 0.748

// G6A G11C : self-cleavage value = 0.222

// A16U C49A : self-cleavage value = 0.895

// C22A G76A : self-cleavage value = 0.212

// G6U C57U : self-cleavage value = 0.573

// G34C C64U : self-cleavage value = 0.271

// C32A G73A : self-cleavage value = 0.138

// G55A C61U : self-cleavage value = 0.96

// G67C G73A : self-cleavage value = 0.327

// G55U U69C : self-cleavage value = 1

// G40U A71U : self-cleavage value = 0.459

// A51U G82C : self-cleavage value = 0.282

// G6C C62U : self-cleavage value = 0.193

// C4G G80A : self-cleavage value = 0.0203
